Tested on: Klebsiella pneumoniae (KPN) isolates
Experiment: MIC of compounds alone and combined with antibacterials, broth microdilution (CLSI)
Type: cell-based
Conditions: KPN 190425; AF1 @ 4 μg/mL
ENDPOINT_LABEL: MIC ATB in combination

Sample answers from the record:
MOL: C=CC1=C(C(=O)O)N2C(=O)[C@@H](NC(=O)/C(=N\OCC(=O)O)c3csc(N)n3)[C@H]2SC1
ENDPOINT_LABEL: MIC ATB in combination
RESULT: <=0.25 μg/mL
//
MOL: C=CC1=C(C(=O)O)N2C(=O)[C@@H](NC(=O)/C(=N\O)c3csc(N)n3)[C@H]2SC1
ENDPOINT_LABEL: MIC ATB in combination
RESULT: <=0.25 μg/mL
//
MOL: CC(C)(O/N=C(\C(=O)N[C@@H]1C(=O)N2C(C(=O)[O-])=C(C[n+]3ccccc3)CS[C@H]12)c1csc(N)n1)C(=O)O
ENDPOINT_LABEL: MIC ATB in combination
RESULT: <=0.25 μg/mL
//
MOL: COCC1=C(C(=O)O)N2C(=O)[C@@H](NC(=O)/C(=N\OC)c3csc(N)n3)[C@H]2SC1
ENDPOINT_LABEL: MIC ATB in combination
RESULT: <=0.25 μg/mL

Proceeding to the next molecule to report its MIC ATB in combination.
Sure, the documented MIC ATB in combination for CO/N=C(\C(=O)N[C@@H]1C(=O)N2C(C(=O)O)=C(COC(N)=O)CS[C@H]12)c1ccco1 is 4 µg/mL

----------
System: Citrobacter freundii (CFR) isolates
Experiment: MIC of compounds alone and combined with antibacterials, broth microdilution (CLSI)
Type: cell-based
Details: CFR UFR10; AF1 @ 4 μg/mL
ENDPOINT_LABEL: MIC ATB in combination

Sample records with MIC ATB in combination:
COMPOUND: C=CC1=C(C(=O)O)N2C(=O)[C@@H](NC(=O)/C(=N\O)c3csc(N)n3)[C@H]2SC1 [CDR, Cefdinir]
ENDPOINT_LABEL: MIC ATB in combination
RESULT: <=0.25 μg/mL
//
COMPOUND: CO/N=C(\C(=O)N[C@@H]1C(=O)N2C(C(=O)O)=C(COC(N)=O)CS[C@H]12)c1ccco1 [FUR, Cefuroxime]
ENDPOINT_LABEL: MIC ATB in combination
RESULT: 8 µg/mL
//
COMPOUND: C=CC1=C(C(=O)O)N2C(=O)[C@@H](NC(=O)/C(=N\OCC(=O)O)c3csc(N)n3)[C@H]2SC1 [FIX, Cefixime]
ENDPOINT_LABEL: MIC ATB in combination
RESULT: <=0.25 μg/mL
//
COMPOUND: COCC1=C(C(=O)O)N2C(=O)[C@@H](NC(=O)/C(=N\OC)c3csc(N)n3)[C@H]2SC1 [POD, Cefpodoxime]
ENDPOINT_LABEL: MIC ATB in combination
RESULT: <=0.25 μg/mL

The measured MIC ATB in combination associated with CC(C)(O/N=C(\C(=O)N[C@@H]1C(=O)N2C(C(=O)[O-])=C(C[n+]3ccccc3)CS[C@H]12)c1csc(N)n1)C(=O)O [CAZ, Ceftazidime] reads <=0.25 μg/mL

----------
Experiment: Hydrolysis kinetics in buffers at 37° C., 4 μg/ml (LC-MS, Method 8)
Format: physicochemical
Settings: Phosphate 10 mM pH 7.4
Method: Method 8: Hydrolysis Kinetics in Buffers or Plasma Samples at 37° C., 4 μg/ml (Table 9) Test compounds were prepared in DMSO at 0.8 mg/ml (relative to the acid AF1). To obtain a concentration of 4 μg/ml, one microliter of test compounds or AF1 was dissolved in 199 μl of buffer or blank plasma. […] The formation of AF1 from test compounds was quantified using LC-MS/MS.
ENDPOINT_LABEL: Hydrolysis at 4 μg/ml at 37° C. (LC-MS) T50 (50% degradation time)

MOL: CC1(OC(=O)C(F)(F)ON2C(=O)N3C[C@H]2CC[C@H]3C(N)=O)CCOCC1
RESULT: 39 min
//
MOL: COCC(COC)OC(=O)C(F)(F)ON1C(=O)N2C[C@H]1CC[C@H]2C(N)=O
RESULT: <1 min
//
MOL: CCOC(=O)C(F)(F)ON1C(=O)N2C[C@H]1CC[C@H]2C(N)=O
RESULT: <1 min
//
MOL: COCC(C)(C)OC(=O)C(F)(F)ON1C(=O)N2C[C@H]1CC[C@H]2C(N)=O
RESULT: 23 min
//
MOL: CCCN(CCC)[C@H]1CC[C@H](OC(=O)C(F)(F)ON2C(=O)N3C[C@H]2CC[C@H]3C(N)=O)CC1
RESULT: <1 min

Recorded Hydrolysis at 4 μg/ml at 37° C. (LC-MS) T50 (50% degradation time) (compound COCCCC(C)(C)OC(=O)C(F)(F)ON1C(=O)N2C[C@H]1CC[C@H]2C(N)=O ): <5 min

For this compound ( NC(=O)[C@@H]1CC[C@@H]2CN1C(=O)N2OC(F)(F)C(=O)OC1CCOCC1 ), measured Hydrolysis at 4 μg/ml at 37° C. (LC-MS) T50 (50% degradation time) is <1 min

----------
Tested on: Klebsiella oxytoca (KOX) isolates
Assay: MIC of compounds alone and combined with antibacterials, broth microdilution (CLSI)
Type: cell-based
Conditions: KOX UFR223; AF1 @ 4 μg/mL
ENDPOINT_LABEL: MIC ATB in combination

Examples from the recorded data:
MOL: C=CC1=C(C(=O)O)N2C(=O)[C@@H](NC(=O)/C(=N\OCC(=O)O)c3csc(N)n3)[C@H]2SC1
ENDPOINT_LABEL: MIC ATB in combination
RESULT: <=0.25 μg/mL
--
MOL: C=CC1=C(C(=O)O)N2C(=O)[C@@H](NC(=O)/C(=N\O)c3csc(N)n3)[C@H]2SC1
ENDPOINT_LABEL: MIC ATB in combination
RESULT: <=0.25 μg/mL
--
MOL: CO/N=C(\C(=O)N[C@@H]1C(=O)N2C(C(=O)O)=C(COC(N)=O)CS[C@H]12)c1ccco1
ENDPOINT_LABEL: MIC ATB in combination
RESULT: 2 µg/mL
--
MOL: CC(C)(O/N=C(\C(=O)N[C@@H]1C(=O)N2C(C(=O)[O-])=C(C[n+]3ccccc3)CS[C@H]12)c1csc(N)n1)C(=O)O
ENDPOINT_LABEL: MIC ATB in combination
RESULT: <=0.25 μg/mL
--
MOL: COCC1=C(C(=O)O)N2C(=O)[C@@H](NC(=O)/C(=N\OC)c3csc(N)n3)[C@H]2SC1
ENDPOINT_LABEL: MIC ATB in combination
RESULT: <=0.25 μg/mL

Turning to the following compound.
Lab note: compound CC1(C)S[C@@H]2[C@H](NC(=O)[C@H](N)c3ccc(O)cc3)C(=O)N2[C@H]1C(=O)O tested on Klebsiella oxytoca (KOX) isolates; recorded MIC ATB in combination was 16 µg/mL

----------
Item-by-item account of MIC
System: Enterobacter cloacae (ECL) isolates
Test: MIC of compounds alone and combined with antibacterials, broth microdilution (CLSI)
Format: cell-based
Details: Enterobacter cloacae, strain ECL UFR196 (TEM-1, CTX-M-15, OXA-1, OXA-48); ATB alone

COMPOUND: CO/N=C(\C(=O)N[C@@H]1C(=O)N2C(C(=O)O)=C(COC(N)=O)CS[C@H]12)c1ccco1 [FUR, Cefuroxime]
RESULT: > 256 µg/mL
--
COMPOUND: CC1(C)S[C@@H]2[C@H](NC(=O)[C@H](N)c3ccc(O)cc3)C(=O)N2[C@H]1C(=O)O [AMX, Amoxicillin]
RESULT: > 128 µg/mL
--
COMPOUND: C=CC1=C(C(=O)O)N2C(=O)[C@@H](NC(=O)/C(=N\OCC(=O)O)c3csc(N)n3)[C@H]2SC1 [FIX, Cefixime]
RESULT: > 128 µg/mL

Let's switch to this compound now.
The compound identified as CC(C)(O/N=C(\C(=O)N[C@@H]1C(=O)N2C(C(=O)[O-])=C(C[n+]3ccccc3)CS[C@H]12)c1csc(N)n1)C(=O)O [CAZ, Ceftazidime] registered its MIC at > 256 µg/mL

----------
Tested on: Proteus mirabilis (PMI) isolates
Assay: microbe, parasite or virus in culture
Format: cell-based
Conditions: PMI UFR126; AF1 @ 4 μg/mL
Description: Method 2: MIC of Compounds Alone and Combined with Antibacterials Against Bacterial Isolates. Compounds of the present invention were assessed against genotyped bacterial strains (Table 3, 4) alone or in combination with an antibacterial (Table 2). […] The MIC of the compounds was defined as the lowest concentration of said compounds that prevented bacterial growth as read by visual inspection. […]
ENDPOINT_LABEL: MIC ATB in combination (µg/mL)
Entry rule: numbers only, all in µg/mL.

Worked examples, 2 compounds total:
COMPOUND: CO/N=C(\C(=O)N[C@@H]1C(=O)N2C(C(=O)O)=C(COC(N)=O)CS[C@H]12)c1ccco1 [FUR, Cefuroxime]
TARGET_OR_TEST_SYSTEM: Proteus mirabilis (PMI) isolates
READOUT_NUMBER: 1
--
COMPOUND: C=CC1=C(C(=O)O)N2C(=O)[C@@H](NC(=O)/C(=N\OCC(=O)O)c3csc(N)n3)[C@H]2SC1 [FIX, Cefixime]
TARGET_OR_TEST_SYSTEM: Proteus mirabilis (PMI) isolates
READOUT_NUMBER: 0.031

Now let's try a different one.
Field MIC ATB in combination (entry CC1(C)S[C@@H]2[C@H](NC(=O)[C@H](N)c3ccc(O)cc3)C(=O)N2[C@H]1C(=O)O [AMX, Amoxicillin] ) reads 4
